TARGET: T1, recombinant biotinylated monomeric Fc fusion of human Folate Receptor 2 (hu FolR2 ECD-AcTev-Fcknob-Avi tag … (human, UniProt P0DOX5 223-449 = IgG part, biotin on the C-terminal Avi tag))
T1 construct: also called FolR2-Fc
PROTOCOL DETAILS: SPR ProteOn, Fab analyte on immobilized antigen-Fc

BINDER	binding result
16A3 Fab (Fab, V domains shown, bacterial Fab) VH: QVQLVQSGAEVKKPGASVKVSCKASGYTFTSYYMHWVRQAPGQGLEWMGIINPSGGSTSYAQKFQGRVTMTRDTSTSTVYMELSSLRSEDTAVYYCARNYYAGVTPFDYWGQGTLVTVSS VL: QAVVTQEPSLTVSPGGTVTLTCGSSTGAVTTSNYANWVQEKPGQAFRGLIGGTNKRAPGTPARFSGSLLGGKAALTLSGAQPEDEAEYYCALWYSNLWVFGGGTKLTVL	no binding
15A1 Fab (Fab, V domains shown, bacterial Fab) VH: QVQLVQSGAEVKKPGASVKVSCKASGYTFTSYYMHWVRQAPGQGLEWMGIINPSGGSTSYAQKFQGRVTMTRDTSTSTVYMELSSLRSEDTAVYYCARNYYIGVVTFDYWGQGTLVTVSS VL: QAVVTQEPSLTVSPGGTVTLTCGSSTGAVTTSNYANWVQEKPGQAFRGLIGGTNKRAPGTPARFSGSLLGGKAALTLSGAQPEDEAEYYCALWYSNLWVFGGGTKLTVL	no binding
15B6 Fab (Fab, V domains shown, bacterial Fab) VH: QVQLVQSGAEVKKPGASVKVSCKASGYTFTSYYMHWVRQAPGQGLEWMGIINPSGGSTSYAQKFQGRVTMTRDTSTSTVYMELSSLRSEDTAVYYCARNYYIGIVPFDYWGQGTLVTVSS VL: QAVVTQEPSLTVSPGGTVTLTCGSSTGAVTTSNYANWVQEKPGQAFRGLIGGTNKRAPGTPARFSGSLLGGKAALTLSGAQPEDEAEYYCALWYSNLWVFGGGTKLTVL	no binding
